Some molecules, each annotated with its measured TGI.
Test system: UACC-257 melanoma
Assay: NCI tumour cell line growth inhibition, 48 h
OBSERVATION TYPE: TGI (µM)

                                    molecule  qualifier_sign  recorded_value
 0  CN(C)c1nc2oc(-c3ccccc3)c(-c3ccccc3)c2c2nncn12               >             100
 1  CC(C)CCC[C@@H](C)[C@H]1CC[C@H]2[C@@H]3CC[C@H]4C[C@H](N)CC[C@]4(C)[C@H]3CC[C@]12C               =            41.6
 2  O=C(C=Nc1ccccc1C(=O)[O-])c1cccs1.O=C(C=Nc1ccccc1C(=O)[O-])c1cccs1.[Co+2]               >             100
 3  CC(C)(C)OC(=O)CC(NC(=O)OC(C)(C)C)C(=O)N[C@@H]1CCCC[C@H]1C(=O)OCc1ccccc1 (stereo not given in full)               =            89.4
 4  C=C(C)C1Cc2c(cc(OC)c3c(=O)c4cccc(O)c4oc23)O1 (stereo not given)               >             100
 5                  O=Cc1cc([N+](=O)[O-])no1               =            90.7
 6  C=C1[C@H](OC(=O)C(C)C)[C@]23CC4(O)[C@@H]5[C@@]6(C)CCC[C@]57C([C@@H]2C[C@@]1(O)[C@H](O)[C@@H]73)N4C6               >             100
 7               c1ccc2c(c1)sc1c3cnccc3ccc21               >             100
 8            C/C(=N\NC(N)=S)c1cc(C)c(C)cc1C               >             100
 9  CCN1/C(=C/C=C/c2n(-c3ccccc3)c3ccc(-c4nc5ccccc5s4)cc3[n+]2CC)N(c2ccccc2)c2ccc(-c3nc4ccccc4s3)cc21               >            15.4
10  Cc1ccc(O)c(C(c2ccc([N+](=O)[O-])cc2)c2cc(C)ccc2O)c1               =            28.4
11  O=[N+]([O-])c1ccc2[nH]nc(OCc3ccccn3)c2c1               >             100
12  N#C/C(=N\Nc1ccc(Cl)cc1)C(=O)Nc1cc(-c2ccccc2)nn1-c1ccccc1               =            8.62
13  OC1(c2ccc(Cl)cc2)c2c(ccc3c2OCO3)C2=NCCN21 (stereo not given)               =            37.2
14  N#CC(c1ccnc(Cl)n1)c1nc2ccccc2s1 (stereo not given)               =            41.2
15  COc1cccc(C2C3=C(COC3=O)N(CCO)c3cc(OC)ccc32)c1 (stereo not given)               >             100
16  Cc1ccc2c(c1)c1nc3cc(C)c(C)cc3nc1n2CCN(C)C               =            5.48
17  CCN(CC)c1ccc(/C=C2/C[N+](C)(C)C/C(=C/c3ccc(N(CC)CC)cc3)C2=O)cc1               =               6
18                Cc1noc2cccc(OCc3ccccc3)c12               >             100
19          CCCCCCCC(=O)NCC(O)CNC(=O)CCCCCCC               >             100

# credit: PubChem BioAssay (NCI)
